test system: U2OS; test: Multiplex assay against U2OS; assay type: toxicity, cell-based; settings: human, 12 h, 1 µM, compound concentration 1 uM, replicate 1
ASSAY_METRIC: Population Fragmented Nuclei (%)
Express your answer in %, writing the number without its unit.

Query string: Query Population Fragmented Nuclei (%) for "CCCCC(=O)N(Cc1ccc(-c2ccccc2-c2nnn[nH]2)cc1)[C@H](C(=O)O)C(C)C"
Result string: 28

###

tested on: U2OS; assay: Multiplex assay against U2OS; assay type: toxicity, cell-based; settings: human, 24 h, 1 µM, compound concentration 1 uM, replicate 1
In this section we review reported Population Healthy Nuclei (%) values for a set of molecules.
Express your answer in %, writing the number without its unit.

O=C(NCCN1CCC(n2c(=O)[nH]c3cc(Cl)ccc32)CC1)c1ccc(F)cc1 [HALOPEMIDE] | 68
Br.CS(=O)(=O)Nc1c(O)ccc2c1CCCC2C1=NCCN1 (stereo not given) | 73
COc1cccc2c1c(NS(=O)(=O)c1ccc(Cl)s1)nn2Cc1cccc(CNC(=O)C(C)(C)O)c1 | 70
O=C1[C@H](Cc2ccc(O)cc2)N2C(=O)CCN(C(=O)NCc3ccccc3)[C@H]2CN1Cc1cccc2ccccc12 | 73

Query string: Query Population Healthy Nuclei (%) for Cc1sc2c(c1C)C(c1ccc(Cl)cc1)=N[C@@H](CC(=O)NCCCCCCCCNC(=O)COc1cccc3c1C(=O)N(C1CCC(=O)NC1=O)C3=O)c1nnc(C)n1-2 (stereo not given in full)
Result string: 51

###

In this section we review reported Population Tubulin-Different-Phenotype (%) values for a set of molecules.
test system: Fibroblast; test: Multiplex assay against human fibroblast; format: toxicity, cell-based; conditions: 48 h, 10 µM, compound concentration 10 uM, replicate 1
Express your answer in %, writing the number without its unit.

Would you please look over these solved cases?
CN(C)C(=O)Cn1cc(-c2ccc(-c3cncc4ccccc34)cc2)cn1 | 55
CC(=O)Nc1cccc2c1c(Sc1ccc(Cl)cc1)c(C)n2CC(=O)O | 25
CCCCC1=NC2(CCCC2)C(=O)N1Cc1ccc(-c2ccccc2-c2nnn[nH]2)cc1 | 38
NCCc1cn(S(=O)(=O)c2c(Cl)nc3sccn23)c2ccccc12.O=C(O)C(=O)O | 92

We next turn to a different molecule, shown below.
Query string: Print Fibroblast Population Tubulin-Different-Phenotype (%) for "CCCCC(=O)N(Cc1ccc(-c2ccccc2-c2nnn[nH]2)cc1)[C@H](C(=O)O)C(C)C" .
Result string: 30

###

system: Fibroblast; assay: Multiplex assay against human fibroblast; assay type: toxicity, cell-based; details: 48 h, 10 µM, compound concentration 10 uM, replicate 1
So basically, if Population Tubulin-Different-Phenotype (%) comes in under 40% it's Satisfied, and if it's 40% or more it's Not satisfied.

C[C@H](N)COC(=O)[C@@H](CCCCN)NC(=O)Cc1c(-c2ccc3ccccc3c2)[nH]c2c1ccc1ccccc12 | Satisfied
CCc1cc2cc(NS(=O)(=O)c3ccc(C#N)cc3)ccc2n(CC)c1=O | Not satisfied
Cc1onc(-c2ccccc2Cl)c1C(=O)N(C)c1ccc(Cl)cc1 | Satisfied

Query string: Bench note: check whether "CN1CCN(c2cc(-c3ccccc3)nc(N)n2)CC1" shows Population Tubulin-Different-Phenotype (%) below 40%
Result string: Satisfied

Query string: Bench note: check whether "Cc1cccc(NC(=O)CN2CCC(c3ccccn3)CC2)c1.Cl.Cl" shows Population Tubulin-Different-Phenotype (%) below 40%
Result string: Not satisfied

###

system: Fibroblast; test: Multiplex assay against human fibroblast; format: toxicity, cell-based; details: 24 h, 1 µM, compound concentration 1 uM, replicate 2
In this section we review reported Population Apoptotic (%) values for a set of compounds.
Express your answer in %, writing the number without its unit.

Would you please look over these solved cases?
O=C(CCCc1ccccc1)Nc1nc2ccccc2c(=O)s1 | 42
CCCCCC(O)/C=C/[C@H]1C(=O)CC(O)C1C/C=C\CCCC(=O)O (some centres not stated) | 50
CC(=O)Nc1cccc2c1c(Sc1ccc(Cl)cc1)c(C)n2CC(=O)O | 36
Cc1noc(-c2ccc(-c3ccc(CC(=O)O)cc3)cc2)c1NC(=O)O[C@H](C)c1ccccc1Cl | 52
N#Cc1c(Oc2cccc(OS(=O)(=O)CCCC(F)(F)F)c2)cccc1C(F)(F)F | 54
O=C(NCCN1CCC(n2c(=O)[nH]c3cc(Cl)ccc32)CC1)c1ccc(F)cc1 [HALOPEMIDE] | 37

Query string: Query Population Apoptotic (%) for "CC(C)c1noc(N2CCC(COc3ccc(-c4ccc(S(C)(=O)=O)cc4)nc3)CC2)n1"
Result string: 44

Query string: Query Population Apoptotic (%) for "Cc1cnc(-c2cc(N3CCN(C(=O)CCS(C)(=O)=O)CC3)ncc2Cl)c(C)c1"
Result string: 47

Query string: Query Population Apoptotic (%) for "CN(C)C(=O)Cn1cc(-c2ccc(-c3cncc4ccccc34)cc2)cn1"
Result string: 48

###

In this section we review reported Population Fragmented Nuclei (%) values for a set of compounds.
tested on: U2OS; assay: Multiplex assay against U2OS; format: toxicity, cell-based; details: human, 24 h, 10 µM, compound concentration 10 uM, replicate 2
Express your answer in %, writing the number without its unit.

Would you please look over these solved cases?
Cc1onc(-c2ccccc2Cl)c1C(=O)N(C)c1ccc(Cl)cc1 | 20
O=C(NCCN1CCC(n2c(=O)[nH]c3cc(Cl)ccc32)CC1)c1ccc(F)cc1 [HALOPEMIDE] | 16

Query string: Print U2OS Population Fragmented Nuclei (%) for "CC[C@@H](C)Nc1nc(C)nc2c(-c3ccc(OC)nc3C)c(C)nn12" .
Result string: 14

Query string: Print U2OS Population Fragmented Nuclei (%) for "N#Cc1c(Oc2cccc(OS(=O)(=O)CCCC(F)(F)F)c2)cccc1C(F)(F)F" .
Result string: 9

###

tested on: HEK-293T; test: Multiplex assay against HEK293T; format: toxicity, cell-based; details: human, 24 h, 1 µM, compound concentration 1 uM, replicate 2
In this section we review reported Population Tubulin-Different-Phenotype (%) values for a set of molecules.
Express your answer in %, writing the number without its unit.

Would you please look over these solved cases?
O=C(NCCN1CCC(n2c(=O)[nH]c3cc(Cl)ccc32)CC1)c1ccc(F)cc1 [HALOPEMIDE] | 21
Cl.NCCc1ccc(O)c(O)c1 [DOPAMINE HYDROCHLORIDE] | 11
COc1ccccc1N1CCN(C[C@@H](C(=O)NC(C)(C)C)c2ccccc2)CC1.Cl.Cl | 28

Query string: Query Population Tubulin-Different-Phenotype (%) for "Cc1noc(-c2ccc(-c3ccc(CC(=O)O)cc3)cc2)c1NC(=O)O[C@H](C)c1ccccc1Cl"
Result string: 20

Query string: Query Population Tubulin-Different-Phenotype (%) for "Cc1onc(-c2ccccc2Cl)c1C(=O)N(C)c1ccc(Cl)cc1"
Result string: 18

Query string: Query Population Tubulin-Different-Phenotype (%) for "CN[C@@H](C)C(=O)N[C@H](C(=O)N1CCC[C@H]1C(=O)Nc1snnc1-c1ccccc1)C1CCCCC1"
Result string: 22

Query string: Query Population Tubulin-Different-Phenotype (%) for "CC(/C=C1\SC(=S)N(CCCC(=O)Nc2ccc(C(=O)O)c(O)c2)C1=O)=C\c1ccccc1"
Result string: 21

Query string: Query Population Tubulin-Different-Phenotype (%) for "CC(C)c1noc(N2CCC(COc3ccc(-c4ccc(S(C)(=O)=O)cc4)nc3)CC2)n1"
Result string: 9

###

tested on: Fibroblast; assay: Multiplex assay against human fibroblast; format: toxicity, cell-based; settings: 24 h, 1 µM, compound concentration 1 uM, replicate 1
In this section we review reported Population Healthy Nuclei (%) values for a set of compounds.

Would you please look over these solved cases?
Cc1noc(-c2ccc(-c3ccc(CC(=O)O)cc3)cc2)c1NC(=O)O[C@H](C)c1ccccc1Cl | 78%
O=C(NCCN1CCC(n2c(=O)[nH]c3cc(Cl)ccc32)CC1)c1ccc(F)cc1 [HALOPEMIDE] | 69%
Cl.NCCc1ccc(O)c(O)c1 [DOPAMINE HYDROCHLORIDE] | 69%
CCCCCC(O)/C=C/[C@H]1C(=O)CC(O)C1C/C=C\CCCC(=O)O (stereo not given in full) | 70%

We next turn to a different compound, shown below.
Query string: Query Population Healthy Nuclei (%) for CC(C)COc1ccc(CNC(=O)N(Cc2ccc(F)cc2)C2CCN(C)CC2)cc1 [PIMAVANSERIN]
Result string: 65%

###

In this section we review reported Population Healthy Nuclei (%) values for a set of molecules.
test system: HEK-293T; assay: Multiplex assay against HEK293T; format: toxicity, cell-based; details: human, 12 h, 10 µM, compound concentration 10 uM, replicate 1

Would you please look over these solved cases?
Cc1sc2c(c1C)C(c1ccc(Cl)cc1)=N[C@@H](CC(=O)NCCCCCCCCNC(=O)COc1cccc3c1C(=O)N(C1CCC(=O)NC1=O)C3=O)c1nnc(C)n1-2 (some centres undefined) | 67%
Cl.NCCc1ccc(O)c(O)c1 [DOPAMINE HYDROCHLORIDE] | 77%
COc1cccc2c1c(NS(=O)(=O)c1ccc(Cl)s1)nn2Cc1cccc(CNC(=O)C(C)(C)O)c1 | 80%

Query string: Query Population Healthy Nuclei (%) for "N#Cc1c(Oc2cccc(OS(=O)(=O)CCCC(F)(F)F)c2)cccc1C(F)(F)F"
Result string: 65%

Query string: Query Population Healthy Nuclei (%) for "N#Cc1cc(F)cc(-c2nc(-c3ccc(F)cn3)no2)c1"
Result string: 73%

Query string: Query Population Healthy Nuclei (%) for "NCCc1cn(S(=O)(=O)c2c(Cl)nc3sccn23)c2ccccc12.O=C(O)C(=O)O"
Result string: 49%

Query string: Query Population Healthy Nuclei (%) for Cc1c(CC(=O)O)c2cccnc2n1Cc1ccc(S(C)(=O)=O)cc1C(F)(F)F [FEVIPIPRANT]
Result string: 80%

Query string: Query Population Healthy Nuclei (%) for "Cc1onc(-c2ccccc2Cl)c1C(=O)N(C)c1ccc(Cl)cc1"
Result string: 79%

Query string: Query Population Healthy Nuclei (%) for CC(=O)Nc1cccc2c1c(Sc1ccc(Cl)cc1)c(C)n2CC(=O)O [AZD1981]
Result string: 78%
